# procedure_details: Cycloheximide Counterscreen for Small Molecule Inhibitors of Shiga Toxin; note: read at 38.3 µM for the half of the compounds with a filed dose
# assay_conditions: cell reporter, cycloheximide protein synthesis inhibition counterscreen
Screen size: about 300,000 compounds; about 37,000 (12%) were called active. Cut-off read from the data, not from the text of the source: active = max response mostly above about 13% (no sharp cut-off); inactive = mostly below about 14%. For the sample, actives were picked, then their nearest neighbours and some compounds at random.
Respond only with the outcome that fits, drawn from 1 = active, -1 = inactive

Examples from the recorded data:
COc1ccc(OC)c(C(=O)c2ccc(C(=O)N3CCN(Cc4csc(C)n4)CC3)cc2)c1
-1
Cc1cnc(NC(=O)c2ccccn2)s1
1
O=C(c1ccc(F)cc1)n1cc(C(=S)N2CCOCC2)c2ccccc21
-1
NS(=O)(=O)c1ccc(NC(=O)COC(=O)c2ccc(Cl)nc2)cc1
-1
COc1cccc(NC(=O)N2CCCC2C(=O)NC2CCCCC2)c1 (stereo not given)
-1

Record lookup: outcome of this test for "COc1ccc(CCNC(=O)CCCCCNC(=O)N2CCn3c2nc2ccccc23)cc1OC" ?
-1

Record lookup: outcome of this test for CN(C)c1ccc(C(CC(=O)O)C(=O)O)cc1 (stereo not given) ?
1

Record lookup: outcome of this test for "COc1ccccc1-c1nc(C#N)c(N2CCC(C(N)=O)CC2)o1" ?
-1

Record lookup: outcome of this test for "COc1ccc(-c2cc3ccc(OCc4nn[nH]n4)cc3oc2=O)cc1" ?
-1

====

# procedure_details: Cycloheximide Counterscreen for Small Molecule Inhibitors of Shiga Toxin; note: read at 38.3 µM for the half of the compounds with a filed dose
# assay_conditions: cell reporter, cycloheximide protein synthesis inhibition counterscreen; active compounds read high
Hit rate of the full screen: of about 300,000 compounds, about 37,000 (12%) were called active. The list comes from a sample in which actives are over-represented; it also holds close analogues and randomly drawn compounds.
Examples of compounds with documented max response follow.
The reply should be a number in %, with the unit left off.

COc1ccc(C)cc1-n1nnnc1SCc1nc2ccccc2c(=O)[nH]1
10.3

response.value for "CC(=O)Oc1ccc(-c2nc3c(C)cccc3c(=O)o2)cc1" (field: max response) = -4.07

response.value for "Cc1ccc2c(c1)N(CC(=O)N1CCC(O)CC1)C(=O)CO2" (field: max response) = -1.82

response.value for "C=CCn1cc(C(=O)NCc2ccc(Cl)cc2)c(=O)c2cc(S(=O)(=O)N(CC)CC)ccc21" (field: max response) = -6.07

response.value for "COc1ccc(/C=C/c2noc(-c3ccccc3OC(C)=O)n2)cc1" (field: max response) = 19

====

# procedure_details: Cycloheximide Counterscreen for Small Molecule Inhibitors of Shiga Toxin; note: read at 38.3 µM for the half of the compounds with a filed dose
# assay_conditions: cell reporter, cycloheximide protein synthesis inhibition counterscreen; active compounds read high
Out of some 300,000 compounds screened, about 37,000 (12%) were called active. What follows is part of a selection rich in actives, with near analogues and random picks from the rest.
Examples of molecules with documented max response follow.
The reply should be a number in %, with the unit left off.

response.value for "O=C(CC12CC3CC(CC(C3)C1)C2)Nc1ccc2c(c1)COC2=O" (field: max response) = -2.75

response.value for C=CCOC(=O)C1=C(C)N=C2SCCC(=O)N2C1/C=C/c1ccccc1OC (stereo not given) (field: max response) = -1.27

response.value for "CCN(CC)C(=O)CN(c1cccc(OC)c1)S(=O)(=O)c1ccc(C)cc1" (field: max response) = 1.38

response.value for "COc1ccccc1-c1nnc(SCC(=O)Nc2cc(C)on2)o1" (field: max response) = 2.69

response.value for "COc1cccc(NC(=O)c2nn(-c3ccc(OC)cc3OC)c(=O)c3ccccc23)c1" (field: max response) = -9.73

response.value for CCOc1ccccc1NC(=O)C1CCCN(S(=O)(=O)c2ccccc2)C1 (stereo not given) (field: max response) = -1.93

response.value for "CCOC(=O)C1=C(O)CSC1=Nc1cccc(Cl)c1" (field: max response) = -2.53

response.value for "O=C(Cn1cnc2ccccc2c1=O)Nc1cccc(S(=O)(=O)N2CCCCC2)c1" (field: max response) = 7.05

response.value for CC(CCn1cccn1)NC(=O)CCc1nnc(CCc2ccccc2)o1 (stereo not given) (field: max response) = 5.1

====

# procedure_details: Cycloheximide Counterscreen for Small Molecule Inhibitors of Shiga Toxin; note: read at 38.3 µM for the half of the compounds with a filed dose
# assay_conditions: cell reporter, cycloheximide protein synthesis inhibition counterscreen
Hit rate of the full screen: of about 300,000 compounds, about 37,000 (12%) were called active. Rule as the data show it: active = max response mostly above about 13% (no sharp cut-off); inactive = mostly below about 14%. This excerpt belongs to a sample that is enriched for actives.
Respond only with the outcome that fits, drawn from active, inactive

CSc1ccc(S(=O)(=O)N2CCC(C(=O)NCCc3ccccc3)CC2)cc1
inactive
CC(C)(C)OC(=O)NCCCCCC(=O)N/N=C/c1coc2ccccc2c1=O
active

Record lookup: outcome of this test for "Cc1ccc2occ(/C=N/NC(=O)c3ccccc3C)c(=O)c2c1" ?
inactive

Record lookup: outcome of this test for "O=C(Cn1cnc2ccccc21)Nc1ccccc1-c1ccccc1" ?
inactive

====

# procedure_details: Cycloheximide Counterscreen for Small Molecule Inhibitors of Shiga Toxin; note: read at 38.3 µM for the half of the compounds with a filed dose
# assay_conditions: cell reporter, cycloheximide protein synthesis inhibition counterscreen; active compounds read high
In all, about 300,000 compounds went through this assay and about 37,000 (12%) were called active. This is one part of a sample in which actives are shown more often than they occur.
value_kind: max response (%)
The reply should be a number in %, with the unit left off.

Some compounds with recorded max response:
CCCSc1nsc(N)n1
22.8
COc1ccccc1C(C)NC(=O)Cc1ccsc1 (configuration not stated)
5.18
CC1CCN(C(=O)Cn2nnnc2CN2CCOCC2)CC1
-2.13
O=C(NCc1cn2ccsc2n1)Nc1cccc(Cl)c1
-2.26
COCCCn1c(Cc2csc(Nc3cccc(Cl)c3)n2)nnc1SCC(=O)OC1CCCCC1
1.16
CCc1cccc(NC(=O)CCC(=O)O)c1
-2.1

As a next step, examine the compound that follows.
response.value for "CCCCCCSc1nsc(N)n1" (field: max response) = 23.1

====

# procedure_details: Cycloheximide Counterscreen for Small Molecule Inhibitors of Shiga Toxin; note: read at 38.3 µM for the half of the compounds with a filed dose
# assay_conditions: cell reporter, cycloheximide protein synthesis inhibition counterscreen; active compounds read high
In all, about 300,000 compounds went through this assay and about 37,000 (12%) were called active. The sample holds actives, similar compounds and a random draw of the others, so the mix is not that of the screen.
value_kind: max response

Some compounds with recorded max response:
COc1cc(C2C(C(=O)c3ccco3)=C(O)C(=O)N2c2cc(C)on2)ccc1OCc1ccccc1 (configuration not stated)
-4.25% (inactive)
COc1ccc(Cl)cc1-n1c(=S)sc2c(=O)n(-c3ccc(F)cc3)c(SCC(=O)O)nc21
0.929% (inactive)

As a next step, examine the compound that follows.
response.value for CC(Cc1cccs1)N(Cc1ccc(Cl)cc1)C(=O)c1ccncc1 (configuration not stated) (field: max response) = -4.21% (inactive)

====

# procedure_details: Cycloheximide Counterscreen for Small Molecule Inhibitors of Shiga Toxin; note: read at 38.3 µM for the half of the compounds with a filed dose
# assay_conditions: cell reporter, cycloheximide protein synthesis inhibition counterscreen; active compounds read high
In all, about 300,000 compounds went through this assay and about 37,000 (12%) were called active. For the sample, actives were picked, then their nearest neighbours and some compounds at random.
value_kind: max response (%)
The reply should be a number in %, with the unit left off.

Some compounds with recorded max response:
O=C(O)c1cc2c(cc1NC(=O)c1c(F)cccc1Cl)OCCCO2
-4.07
CCN(C(=O)COC(=O)/C=C/c1nc2ccccc2s1)C1CCS(=O)(=O)C1 (stereo unspecified)
-3.69
O=S(=O)(c1ccc(Cl)cc1)N1CCCN(c2ccc(C(F)(F)F)cn2)CC1
-1.58
CCCc1cc(=O)n2[nH]c(C)c(-c3ccc(Cl)cc3)c2n1
-2.56

response.value for CC(=O)Nc1ccc(N2C(=O)CC(Sc3nccc(C)n3)C2=O)cc1 (stereo unspecified) (field: max response) = -0.348

====

# procedure_details: Cycloheximide Counterscreen for Small Molecule Inhibitors of Shiga Toxin; note: read at 38.3 µM for the half of the compounds with a filed dose
# assay_conditions: cell reporter, cycloheximide protein synthesis inhibition counterscreen
In all, about 300,000 compounds went through this assay and about 37,000 (12%) were called active. Cut-off read from the data, not from the text of the source: active = max response mostly above about 13% (no sharp cut-off); inactive = mostly below about 14%. This is one part of a sample in which actives are shown more often than they occur.
Respond only with the outcome that fits, drawn from true (1) (active), false (0) (inactive)

O=C(Nc1ccc(F)c([N+](=O)[O-])c1)C1CC(=O)N(Cc2ccccc2)C1 (stereo not given)
false (0)

Record lookup: outcome of this test for "CN(Cc1c(F)cccc1Cl)S(=O)(=O)c1cccs1" ?
false (0)

Record lookup: outcome of this test for O=C1C2CCCN2C(=O)N1CCCCN1CCN(c2cccc(C(F)(F)F)c2)CC1 (stereo not given) ?
false (0)

Record lookup: outcome of this test for "CCn1c(=N)n(CC(=O)c2cccc(OC)c2)c2ccccc21" ?
true (1)

Record lookup: outcome of this test for "COc1ccc2c(c1)N(C)/C(=C1/SC(=S)N(NC(C)=O)C1=O)S2" ?
false (0)

Record lookup: outcome of this test for CCCCNC(=O)N(O)C1N(/N=C/c2ccc(N(C)C)cc2)C(=S)SC1(C)C (stereo not given) ?
false (0)

Record lookup: outcome of this test for "Cc1nnc(SCC(=O)Nc2ccc(S(=O)(=O)Nc3ccc(Cl)nn3)cc2)s1" ?
false (0)

Record lookup: outcome of this test for CCC(C)N1C(=S)SC(C)(C)C1N(O)C(=O)NC1CCCCC1 (stereo not given) ?
false (0)

Record lookup: outcome of this test for CCCn1c(C2CCCN2c2nc(-c3ccc(C)cc3)cs2)nc2cc(Cl)c(N3CCCCC3)cc21 (stereo not given) ?
false (0)

Record lookup: outcome of this test for "COc1ccc2cc(C(=O)O)n(CC(=O)c3ccccc3)c2c1" ?
false (0)
